Experiment: Biodistribution of 177Lu-labeled αMSH analogues in mice bearing SK-MEL-1 human melanoma
Details: male, NRG (NOD.Cg-Rag1tm1Mom Il2rgtm1Wjl/SzJ), mouse, heart, total radioactivity
The following compounds are shown together with reported tissue uptake at 4 h values.
State the result as a value with its unit after it.

Compound	Result
CCCC[C@H](NC(=O)CN1CCC(NC(=O)[C@H](CCCCNC(=O)CN2CCN(CC(=O)O)CCN(CC(=O)O)CCN(CC(=O)O)CC2)NC(=O)CNC(=O)CCCc2ccc(I)cc2)CC1)C(=O)N[C@H]1CC(=O)NCCCC[C@@H](C(N)=O)N(C)C(=O)[C@H](Cc2c[nH]c3ccccc23)NC(=O)[C@H](CCCNC(=N)N)N(C)C(=O)[C@@H](Cc2ccccc2)NC(=O)[C@H](Cc2c[nH]cn2)NC1=O [^177Lu-labeled CCZ01148, metal not drawn]	5.71 %ID/g
CCCC[C@H](NC(=O)CN1CCC(NC(=O)[C@H](CCCCNC(=O)CN2CCN(CC(=O)O)CCN(CC(=O)O)CCN(CC(=O)O)CC2)NC(=O)[C@H](CCC(=O)O)NC(=O)CCCc2ccc(I)cc2)CC1)C(=O)N[C@H]1CC(=O)NCCCC[C@@H](C(N)=O)N(C)C(=O)[C@H](Cc2c[nH]c3ccccc23)NC(=O)[C@H](CCCNC(=N)N)N(C)C(=O)[C@@H](Cc2ccccc2)NC(=O)[C@H](Cc2c[nH]cn2)NC1=O [^177Lu-labeled CCZ01118, metal not drawn]	0.84 %ID/g

Here is another compound to look at.
Challenge: Name the reported tissue uptake at 4 h value associated with the compound CCCC[C@H](NC(=O)CN1CCC(NC(=O)[C@H](CCCCNC(=O)CN2CCN(CC(=O)O)CCN(CC(=O)O)CCN(CC(=O)O)CC2)NC(=O)CNC(=O)CCCc2ccc(-c3ccc(C)cc3)cc2)CC1)C(=O)N[C@H]1CC(=O)NCCCC[C@@H](C(N)=O)N(C)C(=O)[C@H](Cc2c[nH]c3ccccc23)NC(=O)[C@H](CCCNC(=N)N)N(C)C(=O)[C@@H](Cc2ccccc2)NC(=O)[C@H](Cc2c[nH]cn2)NC1=O [^177Lu-labeled CCZ01158, metal not drawn]
Response given: 2.84 %ID/g
